In this section, each of the molecules is paired with its reported IC50.
TARGET OR SYSTEM: human AXL (Homo sapiens, UniProt P30530)
Construct: his-tagged catalytic domain (amino acids 473-894) from insect cells; His tag
Sequence (P30530 473-894): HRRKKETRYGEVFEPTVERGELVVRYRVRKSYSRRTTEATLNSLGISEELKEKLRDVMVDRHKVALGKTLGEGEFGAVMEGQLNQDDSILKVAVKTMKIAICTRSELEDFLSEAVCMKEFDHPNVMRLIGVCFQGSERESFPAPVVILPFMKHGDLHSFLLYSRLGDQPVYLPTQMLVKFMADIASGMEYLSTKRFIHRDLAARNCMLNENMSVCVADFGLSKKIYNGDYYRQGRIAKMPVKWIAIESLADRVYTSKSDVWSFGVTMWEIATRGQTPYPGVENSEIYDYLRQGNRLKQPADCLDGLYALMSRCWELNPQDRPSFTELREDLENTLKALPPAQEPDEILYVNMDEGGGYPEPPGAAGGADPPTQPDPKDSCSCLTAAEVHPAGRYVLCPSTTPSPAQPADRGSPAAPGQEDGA
ASSAY SUMMARY: AXL enzymatic assay (LanthaScreen TR-FRET)
EXPERIMENTAL PARAMETERS: recombinant his-tagged catalytic domain (aa 473-894), 18 μM ATP (around Km), 200 nM Poly GT substrate, 1 h reaction

Examples with their reported IC50 follow.
MOLECULE	IC50
CC(C)Oc1ccccc1-n1ccc2cnc(Nc3ccc4c(c3)CCN(C)CC4)nc21	200 to 400 nM
Cc1ccccc1-c1ccc(-n2ccc3cnc(Nc4ccc5c(c4)CCC(N4CCCC4)CC5)nc32)cc1 (stereo not drawn)	25 to 50 nM
CC(C)Oc1cccc(-n2ccc3cnc(Nc4ccc5c(c4)CCC(N4CCCC4)CC5)nc32)c1 (stereo not drawn)	50 to 200 nM
COc1ccc(-n2ccc3cnc(Nc4ccc5c(c4)CCC(N4CCCC4)CC5)nc32)c(OC(C)C)c1 (stereo not drawn)	50 to 200 nM
CC(C)Oc1cc(Cl)ccc1-n1ccc2cnc(Nc3ccc4c(c3)CCC(N3CCCC3)CC4)nc21 (stereo not drawn)	< 25 nM

Request: Tell me its IC50 given CC(C)NC(=O)c1ccccc1-n1ccc2cnc(Nc3ccc4c(c3)CCC(N3CCCC3)CC4)nc21 (stereo not drawn) as the entry.
Response: > 1000 nM

Request: Tell me its IC50 given c1ccc(-c2ccc(-n3ccc4cnc(Nc5ccc6c(c5)CCC(N5CCCC5)CC6)nc43)cc2)cc1 (stereo not drawn) as the entry.
Response: > 1000 nM

Request: Tell me its IC50 given c1ccc(Oc2ccccc2-n2ccc3cnc(Nc4ccc5c(c4)CCC(N4CCCC4)CC5)nc32)cc1 (stereo not drawn) as the entry.
Response: 700 to 800 nM

Request: Tell me its IC50 given Cc1ccccc1Oc1ccccc1-n1ccc2cnc(Nc3ccc4c(c3)CCC(N3CCCC3)CC4)nc21 (stereo not drawn) as the entry.
Response: < 25 nM

Request: Tell me its IC50 given CC(C)Oc1cccnc1-n1ccc2cnc(Nc3ccc4c(c3)CCC(N3CCCC3)CC4)nc21 (stereo not drawn) as the entry.
Response: 200 to 400 nM

Request: Tell me its IC50 given CC(C)Oc1ccc(-n2ccc3cnc(Nc4ccc5c(c4)CCC(N4CCCC4)CC5)nc32)cc1 (stereo not drawn) as the entry.
Response: 25 to 50 nM

Request: Tell me its IC50 given CC(C)Oc1cc(-c2ccccc2)ccc1-n1ccc2cnc(Nc3ccc4c(c3)CCC(N3CCCC3)CC4)nc21 (stereo not drawn) as the entry.
Response: 200 to 400 nM

Request: Tell me its IC50 given c1ccc(-n2ccc3cnc(Nc4ccc5c(c4)CCC(N4CCCC4)CC5)nc32)c(OC2CCCCC2)c1 (stereo not drawn) as the entry.
Response: 200 to 400 nM

Request: Tell me its IC50 given CC(C)Oc1ccccc1-n1ccc2cnc(Nc3ccc4c(c3)CCC(N3CCCC3)CC4)nc21 (stereo not drawn) as the entry.
Response: 25 to 50 nM

Request: Tell me its IC50 given `CC(C)Oc1ccccc1-n1ccc2cnc(Nc3cnn(C4CCN(C)CC4)c3)nc21` as the entry.
Response: 700 to 800 nM
